Compiled notes: published IC50 values involving High affinity nerve growth factor receptor (Homo sapiens, UniProt P04629).

Hello, I would appreciate it if you could give IC50 for each entry below.
1. COCCN1C[C@@H](NC(=O)Nc2cc(C3CC3)nn2C)[C@H](c2cc(F)cc(F)c2)C1
2. COCCN1C[C@@H](NC(=O)Nc2c3c(nn2-c2ccccc2)CS(=O)(=O)C3)[C@H](c2ccccc2)C1
3. CC(C)Oc1cc2nccc(Oc3ccc(NC(=O)c4cn(C)c(=O)n(-c5ccc(F)cc5)c4=O)cc3F)c2c2c1OCCO2
4. COc1cc2nccc(Oc3ccc(NC(=O)c4cn(CC(C)C)c(=O)n(-c5ccc(F)cc5)c4=O)cc3F)c2c2c1OCCO2
5. Fc1ccc(Cc2ccc3[nH]nc(C#Cc4ccccn4)c3c2)cc1
6. CCCCNc1ncnc2[nH]cc(C(=O)c3ccc(Nc4ccc(OC)nc4)nc3F)c12

["100 to 1000 nM", "< 100 nM", "50 to 500 nM", "50 to 500 nM", "> 1000 nM", "< 10 nM"]

Answer with reported IC50 of CCCNc1ncnc2[nH]cc(C(=O)c3ccc(Nc4ccc(CC)nc4)nc3F)c12
< 10 nM
